target: T1, His-tagged, full-length PCSK9 (human, UniProt Q8NBP7 31-692); assay: TR-FRET competition; His-PCSK9, competitor EGF(A)-Fc
T1 construct: The secreted protein is autocleaved into a prodomain and a catalytic/Cys-rich chain that starts at S153; also called His-PCSK9
T1 sequence (Q8NBP7 other isoform, or with tags, fused parts or gaps limits assumed): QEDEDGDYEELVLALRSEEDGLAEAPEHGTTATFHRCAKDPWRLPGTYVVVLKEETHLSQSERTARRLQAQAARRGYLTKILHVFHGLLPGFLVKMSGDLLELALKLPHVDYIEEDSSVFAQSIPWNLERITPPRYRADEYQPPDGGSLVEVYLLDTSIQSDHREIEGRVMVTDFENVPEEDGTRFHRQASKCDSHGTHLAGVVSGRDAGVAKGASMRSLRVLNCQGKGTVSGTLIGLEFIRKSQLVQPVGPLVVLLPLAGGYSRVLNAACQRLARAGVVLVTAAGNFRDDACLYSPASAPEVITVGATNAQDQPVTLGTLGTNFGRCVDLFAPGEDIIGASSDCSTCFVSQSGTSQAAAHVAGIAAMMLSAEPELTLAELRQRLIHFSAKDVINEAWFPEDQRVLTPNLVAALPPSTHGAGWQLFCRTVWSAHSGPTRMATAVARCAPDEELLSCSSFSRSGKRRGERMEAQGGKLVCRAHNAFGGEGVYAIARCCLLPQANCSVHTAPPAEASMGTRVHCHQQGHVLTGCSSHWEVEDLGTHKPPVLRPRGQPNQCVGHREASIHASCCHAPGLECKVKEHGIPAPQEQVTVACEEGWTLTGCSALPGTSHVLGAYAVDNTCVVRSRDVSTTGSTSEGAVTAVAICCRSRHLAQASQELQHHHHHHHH
Square brackets hold non-standard residues; d marks the D form. Ends that are not written are not given here. * marks the point of attachment. hArg = N=C(N)NCCCC[C@H](N)C(=O)O; Pentanoyl = CCCCC(=O)*

[
  {
    "BINDER": "WNLV[hArg]IGLLR (also: end groups and other groups only in drawing, Structure printed only as a drawing) [Compound 202]",
    "IC50": "2.6 µM"
  },
  {
    "BINDER": "Pentanoyl-WNLV[hArg]IGLLR-NH2 (also called n-BuC(O)-WNLV(homoR)IGLLR-NH2) [Compound 191]",
    "IC50": "≥ 50 µM"
  },
  {
    "BINDER": "WNLVRIGLLR (also: further groups not given here, Structure printed only as a drawing) [Compound 133]",
    "IC50": "≥ 50 µM"
  },
  {
    "BINDER": "Pentanoyl-WNLVRIGLGR-NH2 (SMILES CCCCC(=O)N[C@@H](Cc1c[nH]c2ccccc12)C(=O)N[C@@H](CC(N)=O)C(=O)N[C@@H](CC(C)C)C(=O)N[C@H](C(=O)N[C@@H](CCCNC(=N)N)C(=O)N[C@H](C(=O)NCC(=O)N[C@@H](CC(C)C)C(=O)NCC(=O)N[C@@H](CCCNC(=N)N)C(N)=O)[C@@H](C)CC)C(C)C) [Compound 179]",
    "IC50": "≥ 50 µM"
  }
]
